The measured values listed here are drawn from patent US20260193326A1.

What pKd was measured for each of the following?
Target: T1, AAV5
T1 construct: also called adeno-associated virus serotype 5
Assay: SPR, AAV on CM5 chip;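 note: surface plasmon resonance with AAV amine-coupled to the chip as ligand, nanobodies injected as analyte over a concentration series, rate constants and affinity fitted from binding curves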
Expect pKd as a plain number equal to -log10 of the molar concentration.

-- ask Quick one: pKd for A4-041 (VHH) VHH: VQLQESGGGLVQPGGSLRLSCAASGRGFSINTMGWYRQAPGKQRELVATVTRGGSTNYANSVKGRFTISRDNAKNTVYLQMNSLRPEDTAVYYCHVDELRQSSWTTSNLWGQGTQVTVSS ?
-- reply 7.34

-- ask Input A4-023 (VHH) VHH: VQLQESGGGLVQPGGSLRLSCAASGSAFSINTMGWYRQAPGKQRELVASVTPGGSTNYADSVKGRFTISRDNAKNTIYLQMNSLRPEDTAVYYCHLDEVRESSWTTSNLWGQGTQVTVSS
-- reply 7.91

-- ask Input A4-013 (VHH) VHH: VQLQESGGGLVQPGGSLRLSCAASGSRFSINSMGWYRQAPGKQRELVATVTRGGNTNYADSVKGRFTISRDNAKNTVYLQMNSLRPEDTAVYYCHVDEVRESSWTTSNLWGQGTQVTVSS
-- reply 8.14

-- ask Input A4-015 (VHH) VHH: VQLQESGGGLVQPGGSLRLSCAASGSIFSINLMGWYRQAAGKQRELVATITPGGNTNYAGSVKGRFTISRDNAKNTVYLQMNSLRPEDTAVYYCHVDEVRQSSWTTSNLWGQGTQVTVSS
-- reply 8.56

-- ask Input A4-025 (VHH) VHH: VQLQESGGGLVQPGGSLRLSCAASGSNFRINTMGWYRQAPGKQRELVATVTRGGSTNYADSVKGRFTISRDNPKDTVYLQMNSLRPEDTAVYYCHVDEVRESSWTTSNLWGQGTQVTVSS
-- reply 7.07

-- ask Input A4-012 (VHH) VHH: VQLQESGGGAVQAGGSLRLSCAASGSIFSINSMGWYRQAPGKQRELVATVTRGGNTNYAGSVKGRFTISRDNAKNTVYLQMNSLRPEDTAVYYCHVDEVRESSWTTSNLWGQGTQVTVSS
-- reply 7.73

-- ask Input A4-016 (VHH) VHH: VQLQESGGGLVQPGGSLRLSCAASGSIFSINLMGWYRQAPGKQRELVATITPGGNTNYAGSVKGRFTISRDNAKNTVYLQMNSLRPEDTAVYYCHVDEVRQSSWTTSNLWGQGTQVTVSS
-- reply 7.62

-- ask Input A4-030 (VHH) VHH: VQLQESGGGLVQPGGSLRLSCAASGSSFTINTMGWYRQAPGKQRELVAAVTRGGSTNYAGSVKGRFTISRDNAKNTIYLQMNSLRPEDTAVYYCHVDEIRQSSWTTSNLWGQGTQVTVSS
-- reply 7.07
